Cited source: the supplement of paper PMC12764529

test: folding stability dG unfold (combined trypsin and chymotrypsin); higher = more stable

{"SEQUENCE_INPUT": "SAGGSAMKVKSIHWQRHGDRPMVRIKIQNPDGKKRERNIPMDDPEKFKKEAKELAKEGKIKEIEPYSAGGSA [r15_575_TrROS]", "folding stability dG unfold": "< -1 kcal/mol"}
{"SEQUENCE_INPUT": "SAGGMTPEELKKVTIEKTVKDPSGNEYLEKSEVKEVEKKDEKYILKIPYTIKDKNGNTISNGTKTIPLSAGG [r13_172_JUSTAS]", "folding stability dG unfold": "< -1 kcal/mol"}
{"SEQUENCE_INPUT": "SKVIYVPPGATVEEILAAIKANKGKTVTIVMSREELERLKKALEEAGYEVEEVKVFEEEPYVVVKIKVKPSA [r9_1138_TrROS_Hall]", "folding stability dG unfold": "3.84 kcal/mol"}
{"SEQUENCE_INPUT": "SAGGSAGGSAGKMVEVRIEVDVPDADGRPVRVTFTAPLPLHPDGRIDVPAGRVRRVEVRGSAGGSAGGSAGG [r11_664_TrMRF]", "folding stability dG unfold": "< -1 kcal/mol"}

###

assay: folding stability dG unfold from chymotrypsin proteolysis; higher = more stable

{"SEQUENCE_INPUT": "SAGGSAPVTEGPNSITVTRDLDPSESEEEVRALAEEILAALPADVSVSVEFDPETGTATITITFPGSAGGSA [r15_210_JUSTAS]", "folding stability dG unfold (kcal/mol)": 1.95}
{"SEQUENCE_INPUT": "SAGGSLELPEGAKVEVEVEIEEVDDDTVKIKVKVKFTFINEDGEPETFEAEFEFEIPKEEAEELLGSAGGSA [r2_226_TrMRF]", "folding stability dG unfold (kcal/mol)": 3.66}
{"SEQUENCE_INPUT": "SAGGGMEIRLTIYRVDPETGVETSVEKEVTLEEAKEIVKEIPEEGEYTVRVTRPDRPEDVSPEELKLLSAGG [r13_254_JUSTAS]", "folding stability dG unfold (kcal/mol)": -0.0215}
{"SEQUENCE_INPUT": "SAGGGSVSVTPVKEIPGPGTTTLYRETHPDDRTVLITYNPATGTVTVTTYKGNTKTSTTTYNTPESLSAGGS [r16_457_JUSTAS]", "folding stability dG unfold (kcal/mol)": 1.53}
{"SEQUENCE_INPUT": "SAGGSDGEMITYPFLLPDGYLITIWISPENGQITEIEIMPIPAPPPEPPVEPKYGRDDGNGNKKYDSAGGSA [r2_78_TrROS]", "folding stability dG unfold (kcal/mol)": 1.72}
{"SEQUENCE_INPUT": "SAGGSMVITITFPDGSTVTIPEEELLELLKKYGIEPDESDKEKVAKEAAKIIGEEKGIPIKEVKINSAGGSA [r2_83_JUSTAS]", "folding stability dG unfold (kcal/mol)": 3.43}
{"SEQUENCE_INPUT": "SAGLGLEKAKKLAEKIAETLKKELEKELGIPADQIKVEAKVEKLPDGSYKITVKINLKDIPIEKVFYVDSAG [r14_226_TrMRF]", "folding stability dG unfold (kcal/mol)": 2.9}
{"SEQUENCE_INPUT": "MTPEERIEEIEAKARELLRELGLPPEVRLTVEAEVRPRPDGRLELRVRVTVEFPGPPGAIPPELLEALAEES [r1_98_TrMRF]", "folding stability dG unfold (kcal/mol)": 2.38}
{"SEQUENCE_INPUT": "SAGGSAIKVSTSPSDVSVSKVPLPNGETLTIEVSSNGETTVTKTSPTPGTPTTTTVPGASVEELLESAGGSA [r15_406_JUSTAS]", "folding stability dG unfold (kcal/mol)": 0.974}
{"SEQUENCE_INPUT": "SAGGSAGGVKIEVETRTETLPDGSTRTVMRVKIELPAPPPPPPPPTRTVTETTEDGETRTTTVRSAGGSAGG [r6_778_TrROS_Hall]", "folding stability dG unfold (kcal/mol)": 2.07}
{"SEQUENCE_INPUT": "SAGSPSIVRTPSLTYDPDPRNPSTPRLRQASVTATNPNGETITFTFTSLEDMDAALNAWIAANPELLSSAGG [r19_123_JUSTAS]", "folding stability dG unfold (kcal/mol)": 1.74}
{"SEQUENCE_INPUT": "SMDIKVTKLPDGSYRITASVPPDTKPITIPVPKTGKPVVITTEPGKLTVTTDDEEVVKEVAEAIKKGELLSA [r9_515_JUSTAS]", "folding stability dG unfold (kcal/mol)": 0.929}
{"SEQUENCE_INPUT": "SAGGSAGGSAGPPPIEELLEQAKKNPNRPITIRNPGGYYIRITVKPDPNGKPEVEIEPVPSAGGSAGGSAGG [r11_300_TrROS]", "folding stability dG unfold (kcal/mol)": 0.336}
{"SEQUENCE_INPUT": "GRMYIVKIEIKVKRRDPEEGETRERKLEVHVIFPPNDPDALEKADEIARNLAEEDGITDVKVKIYPIRLPDS [r1_346_TrROS]", "folding stability dG unfold (kcal/mol)": 1.89}
